- target desc: T1, human high affinity trimeric IL-2 receptor (CD25/CD122/CD132) (human, UniProt P01589 22-272; P14784 27-551; P31785 23-369)
- T1 sequence 1: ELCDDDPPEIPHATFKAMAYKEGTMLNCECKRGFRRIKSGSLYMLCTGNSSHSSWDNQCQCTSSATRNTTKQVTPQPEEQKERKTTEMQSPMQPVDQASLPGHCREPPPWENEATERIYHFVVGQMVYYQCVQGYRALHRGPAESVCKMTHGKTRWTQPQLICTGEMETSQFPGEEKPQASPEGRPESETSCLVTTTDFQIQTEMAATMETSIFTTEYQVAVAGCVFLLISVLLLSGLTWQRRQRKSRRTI
- T1 sequence 2: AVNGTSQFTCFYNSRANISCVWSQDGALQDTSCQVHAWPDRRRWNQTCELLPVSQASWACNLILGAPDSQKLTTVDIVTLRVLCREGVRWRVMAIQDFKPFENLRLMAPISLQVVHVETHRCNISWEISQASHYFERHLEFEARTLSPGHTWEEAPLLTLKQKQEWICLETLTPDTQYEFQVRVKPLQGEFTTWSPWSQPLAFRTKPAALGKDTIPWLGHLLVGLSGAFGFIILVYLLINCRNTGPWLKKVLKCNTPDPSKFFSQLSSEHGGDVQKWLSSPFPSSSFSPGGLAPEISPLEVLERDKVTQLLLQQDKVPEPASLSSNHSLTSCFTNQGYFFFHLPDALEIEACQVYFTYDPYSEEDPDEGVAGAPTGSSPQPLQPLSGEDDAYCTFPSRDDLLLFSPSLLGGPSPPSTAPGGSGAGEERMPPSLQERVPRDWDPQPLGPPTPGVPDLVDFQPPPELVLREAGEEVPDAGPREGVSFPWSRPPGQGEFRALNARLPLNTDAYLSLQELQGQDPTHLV
- T1 sequence 3: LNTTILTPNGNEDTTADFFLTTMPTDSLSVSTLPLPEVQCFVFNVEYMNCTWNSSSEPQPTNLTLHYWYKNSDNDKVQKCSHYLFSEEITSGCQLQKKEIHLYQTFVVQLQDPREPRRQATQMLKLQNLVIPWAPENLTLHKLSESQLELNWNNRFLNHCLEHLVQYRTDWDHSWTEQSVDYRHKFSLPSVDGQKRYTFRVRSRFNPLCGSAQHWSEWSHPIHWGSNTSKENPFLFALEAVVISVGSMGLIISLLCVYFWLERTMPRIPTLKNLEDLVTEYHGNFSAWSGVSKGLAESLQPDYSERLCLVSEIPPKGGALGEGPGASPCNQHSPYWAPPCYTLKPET
- test protocol: cell-based or functional assay
Hi there, I'd appreciate the recorded pSTAT5 ratio YT CD25/YT, dilution factor 16, upper table for every entry that follows.

## Task Which value of pSTAT5 ratio YT CD25/YT, dilution factor 16, upper table has been reported for IEH (ligand) cytokine: APTSSSTKKTQLQLEHLILDLEMILNGINNYKNPKLTRMLTFKFYMPKKATELKHLQCLEEELKPLEEVLNLAQSKNFHLRPRDLISNINVIVLELKGSETTFMCEYADETATIVEFLNRWITFCHSIISTLT in the records?
## Result 2.6

## Task Which value of pSTAT5 ratio YT CD25/YT, dilution factor 16, upper table has been reported for WEH (ligand) cytokine: APTSSSTKKTQLQLEHLWLDLEMILNGINNYKNPKLTRMLTFKFYMPKKATELKHLQCLEEELKPLEEVLNLAQSKNFHLRPRDLISNINVIVLELKGSETTFMCEYADETATIVEFLNRWITFCHSIISTLT in the records?
## Result 2.2

## Task Which value of pSTAT5 ratio YT CD25/YT, dilution factor 16, upper table has been reported for hIL2 mutein REK (L18R, Q22E, Q126K) (ligand) APTSSSTKKTQLQLEHLRLDLEMILNGINNYKNPKLTRMLTFKFYMPKKATELKHLQCLEEELKPLEEVLNLAQSKNFHLRPRDLISNINVIVLELKGSETTFMCEYADETATIVEFLNRWITFCKSIISTLT in the records?
## Result 4.8

## Task Which value of pSTAT5 ratio YT CD25/YT, dilution factor 16, upper table has been reported for KEH (ligand) cytokine: APTSSSTKKTQLQLEHLKLDLEMILNGINNYKNPKLTRMLTFKFYMPKKATELKHLQCLEEELKPLEEVLNLAQSKNFHLRPRDLISNINVIVLELKGSETTFMCEYADETATIVEFLNRWITFCHSIISTLT in the records?
## Result 1.4
